Cited source: paper PMC2879651

format: in vivo, male FVB/N mice; conditions: male, FVB/N, mouse, serum, ip, 2 mg/kg
MEASURED QUANTITY: MRT

{"columns": ["COMPOUND", "MEASURED QUANTITY", "VALUE MEASURED"],
 "data": [
  ["COc1ccc2[nH]cc(CCN(C)C)c2c1 [5-MeO-DMT, 5-Methoxy-N,N-dimethyltryptamine, reference compound]", "MRT", "17.6 min"]
]}

So for CN(C)CCc1c[nH]c2ccc(O)cc12 [Bufotenine, bufotenine] , the logged MRT turned out to be 24.3 min

----------
assay type: in vivo, male FVB/N mice; conditions: male, FVB/N, mouse, serum, ip, 2 mg/kg
MEASURED QUANTITY: Cmax (ng/mL)
Numbers only, in ng/mL.

{"columns": ["COMPOUND", "UNITS", "Cmax"],
 "data": [
  ["CN(C)CCc1c[nH]c2ccc(O)cc12", "ng/mL", 10.6]
]}

Now consider the entry below.
Cmax reported for this compound COc1ccc2[nH]cc(CCN(C)C)c2c1 [5-MeO-DMT, 5-Methoxy-N,N-dimethyltryptamine, reference compound] : 298
